- STUDY TARGET: … (Plasmodium falciparum)
- TEST DETAILS: SPR, antibody on chip
MEASURED QUANTITY: pKd
Remember the convention: pKd equals -log10 of concentration in molar.

Recorded pKd of AB-007032 (antibody, V domains shown) VH: QVQLVESGGGVVQPGRSLRLSCAASGFTFSTYAMHWVRQAPGQGLQWVAVISYHSTNKYYEDSVRGRFTISRDNSKNTLYLQMNSLRAEDTAVYYCARDGYSSSFFDFWGQGTLVTVSS VL: DIQMTQSPSTLSASVGDRVTITCRASQSISRWLAWYQQQPGKAPKLLISGASVLESGVPSRFSGSGSGTEFTLTISSLQPDDFATYYCQHYNSYFVTFGQGTKVEIK , please.
5.32

Item: AB-007074 (antibody, V domains shown) VH: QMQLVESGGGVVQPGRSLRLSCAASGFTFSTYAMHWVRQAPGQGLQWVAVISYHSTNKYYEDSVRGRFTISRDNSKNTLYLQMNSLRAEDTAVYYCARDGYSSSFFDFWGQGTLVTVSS VL: DIQMTQSPSTLSASVGDRVTITCRASQSISRWLAWYQQQPGKAPKLLMSGASVLESGVPSRFSGSGSGTEFTLTISSLQPDDFATYYCQHYNSYYVTFGQGTKVEIK
4.89

Item: AB-007062 (antibody, V domains shown) VH: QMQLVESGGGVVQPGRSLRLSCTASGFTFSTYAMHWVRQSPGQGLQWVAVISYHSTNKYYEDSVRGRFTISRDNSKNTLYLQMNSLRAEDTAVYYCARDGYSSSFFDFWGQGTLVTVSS VL: DIQMTQSPSTLSASVGDRVAITCRASQSISSWLAWYQQQPGKAPKLLMSGASVLESGVPSRFSGSGSGTEFTLTISSLQPDDFATYYCQHYNSYFVTFGQGTKVEIK
4.60
